Here, each record is paired with measured GLUCOSE data.
Species on record: Rattus norvegicus
Assay: DrugMatrix - Regimen: Daily Repeat
Assay type: toxicity, organism-based, Sprague-Dawley
Set-up: regimen Daily Repeat, gender Male, age 6-8 weeks
Conditions: in vivo, iv, 0 mg/kg, 120 h, tissue Plasma, dose level Control, time 5 day, vehicle 100 % SALINE

# COMPOUND, GLUCOSE
data = [
    ("N=C(N)c1ccc(OCCCCCOc2ccc(C(=N)N)cc2)cc1", "170.67 mg/dL"),
    ("O=C(O)P(=O)(O)O", "186.17 mg/dL"),
    ("C[N+](C)(C)CCOC(=O)CCC(=O)OCC[N+](C)(C)C.[Cl-].[Cl-] [SUCCINYLCHOLINE CHLORIDE]", "170.67 mg/dL"),
    ("COc1cccc2c1C(=O)c1c(O)c3c(c(O)c1C2=O)C[C@@](O)(C(C)=O)C[C@@H]3O[C@H]1C[C@H](N)[C@H](O)[C@H](C)O1", "186.83 mg/dL"),
    ("O=c1[nH]c(=O)n([C@H]2C[C@H](O)[C@@H](CO)O2)cc1F", "144.67 mg/dL"),
]

----------
Here, each record is paired with measured LYMPHOCYTE data.
Species on record: Rattus norvegicus
Test: DrugMatrix - Regimen: Daily Repeat
Assay type: toxicity, organism-based, Sprague-Dawley
Design: regimen Daily Repeat, gender Male, age 6-8 weeks
Conditions: in vivo, iv, 0 mg/kg, 120 h, tissue Blood, dose level Control, time 5 day, vehicle 100 % SALINE

# COMPOUND, LYMPHOCYTE
records = [
    ("N=C(N)c1ccc(OCCCCCOc2ccc(C(=N)N)cc2)cc1", "85.17%"),
    ("O=C(O)P(=O)(O)O", "89.5%"),
    ("COc1cccc2c1C(=O)c1c(O)c3c(c(O)c1C2=O)C[C@@](O)(C(C)=O)C[C@@H]3O[C@H]1C[C@H](N)[C@H](O)[C@H](C)O1", "93.17%"),
    ("O=c1[nH]c(=O)n([C@H]2C[C@H](O)[C@@H](CO)O2)cc1F", "90.5%"),
    ("C[N+](C)(C)CCOC(=O)CCC(=O)OCC[N+](C)(C)C.[Cl-].[Cl-] [SUCCINYLCHOLINE CHLORIDE]", "85.17%"),
]

----------
Here, each record is paired with measured ALANINE AMINOTRANSFERASE data.
Organism: Rattus norvegicus
Assay: DrugMatrix - Regimen: Daily Repeat
Type: toxicity, organism-based, Sprague-Dawley
Design: regimen Daily Repeat, gender Male, age 6-8 weeks
Conditions: in vivo, po, 0 mg/kg, 72 h, tissue Plasma, route oral GAVAGE, dose level Control, time 3 day, vehicle 100 % WATER

# COMPOUND, UNIT TEXT, ALANINE AMINOTRANSFERASE
rows = [
    ("O=c1[nH]c(=O)n(C2CCCO2)cc1F (stereo unspecified)", "u/L", 50.83),
    ("NC(=O)c1cccnc1 [NIACINAMIDE]", "u/L", 52.67),
    ("CN(C)CCC=C1c2ccccc2CCc2ccccc21", "u/L", 66),
    ("CN(C)C(=O)Oc1cccc([N+](C)(C)C)c1.[Br-] [NEOSTIGMINE BROMIDE]", "u/L", 55.67),
    ("CCN(C(C)=O)c1cccc(-c2ccnc3c(C#N)cnn23)c1", "u/L", 66),
    ("CCCC(C)C1(CC)C(=O)NC(=O)NC1=O (stereo unspecified)", "u/L", 55.67),
]

----------
Species on record: Rattus norvegicus
Test: DrugMatrix - Regimen: Daily Repeat
Format: toxicity, organism-based, Sprague-Dawley
Set-up: regimen Daily Repeat, gender Male, age 6-8 weeks
Conditions: in vivo, po, 0 mg/kg, 72 h, tissue Blood, route oral GAVAGE, dose level Control, time 3 day, vehicle 100 % WATER
Here, each record is paired with measured ABSOLUTE MONOCYTE data.
ENDPOINT LABEL: ABSOLUTE MONOCYTE (CELLS/uL)

# COMPOUND, RESULT NUMBER
records = [
    ("CCCC(C)C1(CC)C(=O)NC(=O)NC1=O (stereo not drawn)", 43.83),
    ("CNC1=Nc2ccc(Cl)cc2C(c2ccccc2)=[N+]([O-])C1 [CHLORDIAZEPOXIDE]", 239.33),
    ("O=c1[nH]c(=O)n(C2CCCO2)cc1F (stereo not drawn)", 121),
    ("NC(=O)c1cccnc1 [NIACINAMIDE]", 319.33),
    ("NC12CC3CC(CC(C3)C1)C2", 169),
    ("CN(C)C(=O)Oc1cccc([N+](C)(C)C)c1.[Br-] [NEOSTIGMINE BROMIDE]", 43.83),
    ("CCN(C(C)=O)c1cccc(-c2ccnc3c(C#N)cnn23)c1", 169),
    ("CN(C)CCC=C1c2ccccc2CCc2ccccc21", 169),
]

----------
Species on record: Rattus norvegicus
Assay: DrugMatrix - Regimen: Daily Repeat
Type: toxicity, organism-based, Sprague-Dawley
Parameters: regimen Daily Repeat, gender Male, age 6-8 weeks
Settings: in vivo, po, 0 mg/kg, 120 h, tissue Blood, route oral GAVAGE, dose level Control, time 5 day, […]
Here, each record is paired with measured ABSOLUTE LYMPHOCYTE data.

# MOLECULE, UNIT TEXT, ABSOLUTE LYMPHOCYTE
rows = [
    ("CCc1ccc(CCOc2ccc(CC3SC(=O)NC3=O)cc2)nc1 (stereo unspecified)", "CELLS/uL", 10004.33),
    ("CC(=O)Oc1ccccc1C(=O)O", "CELLS/uL", 10431),
    ("CC(C)c1c(C(=O)Nc2ccccc2)c(-c2ccccc2)c(-c2ccc(F)cc2)n1CC[C@@H](O)C[C@@H](O)CC(=O)O", "CELLS/uL", 8049.5),
    ("O=c1c(-c2ccc(O)cc2)coc2cc(O)cc(O)c12", "CELLS/uL", 8049.5),
    ("CCCCC(=O)N(Cc1ccc(-c2ccccc2-c2nnn[nH]2)cc1)[C@H](C(=O)O)C(C)C", "CELLS/uL", 11518.33),
    ("CS(=O)(=O)Nc1ccc([N+](=O)[O-])cc1Oc1ccccc1 [NIMESULIDE]", "CELLS/uL", 4426.33),
]

----------
Here, each record is paired with measured CHLORIDE data.
Species on record: Rattus norvegicus
Test: DrugMatrix - Regimen: Daily Repeat
Type: toxicity, organism-based, Sprague-Dawley
Design: regimen Daily Repeat, gender Male, age 6-8 weeks
Conditions: in vivo, po, 0 mg/kg, 72 h, tissue Plasma, route oral GAVAGE, dose level Control, time 3 day, vehicle .5 % CMC
ENDPOINT LABEL: CHLORIDE (MEQ/L)

# COMPOUND, RESULT NUMBER
measured = [
    ("COc1ccc2c(c1OC)C(=O)O[C@@H]2[C@H]1c2c(cc3c(c2OC)OCO3)CCN1C [NOSCAPINE]", 96.67),
    ("CN1C(=O)CN=C(c2ccccc2)c2cc([N+](=O)[O-])ccc21 [NIMETAZEPAM]", 104.33),
    ("CN(C)C(=O)C(CCN1CCC(O)(c2ccc(Cl)cc2)CC1)(c1ccccc1)c1ccccc1 [LOPERAMIDE]", 101),
    ("COc1ccccc1[N+](=O)[O-] [2-NITROANISOLE]", 100.17),
    ("CCCNC(=O)NS(=O)(=O)c1ccc(Cl)cc1 [CHLORPROPAMIDE]", 105.17),
    ("COc1cc(OC)c(C(=O)CCCN2CCCC2)c(OC)c1 [BUFLOMEDIL]", 97.67),
]

----------
Species on record: Rattus norvegicus
Experiment: DrugMatrix - Regimen: Daily Repeat
Format: toxicity, organism-based, Sprague-Dawley
Parameters: regimen Daily Repeat, gender Male, age 6-8 weeks
Conditions: in vivo, po, 0 mg/kg, 72 h, tissue Blood, route oral GAVAGE, dose level Control, time 3 day, […]
Here, each record is paired with measured ABSOLUTE LYMPHOCYTE data.
ENDPOINT LABEL: ABSOLUTE LYMPHOCYTE (CELLS/uL)

# MOLECULE, ENDPOINT LABEL, RESULT NUMBER
data = [
    ("CC(C)c1c(C(=O)Nc2ccccc2)c(-c2ccccc2)c(-c2ccc(F)cc2)n1CC[C@@H](O)C[C@@H](O)CC(=O)O [ATORVASTATIN]", "ABSOLUTE LYMPHOCYTE", 11144.67),
    ("CCCCC(=O)N(Cc1ccc(-c2ccccc2-c2nnn[nH]2)cc1)[C@H](C(=O)O)C(C)C", "ABSOLUTE LYMPHOCYTE", 10069.5),
    ("O=c1c(-c2ccc(O)cc2)coc2cc(O)cc(O)c12 [GENISTEIN]", "ABSOLUTE LYMPHOCYTE", 11144.67),
    ("CCc1ccc(CCOc2ccc(CC3SC(=O)NC3=O)cc2)nc1 (stereo not given) [PIOGLITAZONE]", "ABSOLUTE LYMPHOCYTE", 11213.33),
    ("ClC(Cl)(Cl)Cl [CARBON TETRACHLORIDE]", "ABSOLUTE LYMPHOCYTE", 9600.67),
]

Source listed as ChEMBL document CHEMBL3885881.
